# OX2R agonist activity (3 μM, %) per entry
Molecular target: human orexin type 2 receptor (Homo sapiens, UniProt O43614)
Construct: expressed in transfected cells
Sequence (O43614 1-444): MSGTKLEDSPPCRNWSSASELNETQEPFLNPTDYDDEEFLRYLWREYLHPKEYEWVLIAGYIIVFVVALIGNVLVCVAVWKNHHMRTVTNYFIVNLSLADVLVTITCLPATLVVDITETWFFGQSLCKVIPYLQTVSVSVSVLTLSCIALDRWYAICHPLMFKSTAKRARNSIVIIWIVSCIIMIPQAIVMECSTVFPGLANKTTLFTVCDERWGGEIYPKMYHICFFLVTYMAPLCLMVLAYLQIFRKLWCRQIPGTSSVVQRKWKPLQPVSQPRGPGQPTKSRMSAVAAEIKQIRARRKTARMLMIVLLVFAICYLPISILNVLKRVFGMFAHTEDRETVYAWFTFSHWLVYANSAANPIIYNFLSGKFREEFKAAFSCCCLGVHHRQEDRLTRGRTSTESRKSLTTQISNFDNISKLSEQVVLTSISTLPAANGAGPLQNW
Experiment: Measurement of orexin type 2 receptor agonist activity (calcium fluorescence, CHO cells forcibly expressing human OX2 receptor)
Format: cell-based
Conditions: compound at 3 μM, DMSO = 0%, orexin A (human) 10 nM = 100%
Report the figure in % without appending any unit label.

| compound | value |
| --- | --- |
| CCS(=O)(=O)NC1CCc2ccc(C)c(=O)n2C1COC1CCC(C)CC1 (racemic) [Example 7] | 85 |
| CCS(=O)(=O)NC1CCc2ccc(C)c(=O)n2C1COC1CCC(C(F)(F)F)CC1 (racemic) [Example 38] | 88 |

Query Cc1ccc2n(c1=O)C(COC1CCC(C)CC1)C(NS(C)(=O)=O)CC2 (centres unmarked) [Example 1] yields OX2R agonist activity (3 μM, %) of 96

Query CCC1CCC(OCC2C(NS(C)(=O)=O)CCc3c(Br)cc(C)c(=O)n32)CC1 (centres unmarked) [Example 106] yields OX2R agonist activity (3 μM, %) of 91

Query Cc1ccc2n(c1=O)C(COC1CCC(c3ccccc3)CC1)C(NS(C)(=O)=O)CC2 (centres unmarked) [Example 6] yields OX2R agonist activity (3 μM, %) of 92

Query CCS(=O)(=O)NC1CCc2ccc(C)c(=O)n2C1COC1CCC(c2ccccc2C)CC1 (racemic) [Example 23] yields OX2R agonist activity (3 μM, %) of 96

Query CCCCC1CCC(OCC2C(NS(C)(=O)=O)CCc3ccc(C)c(=O)n32)CC1 (racemic) [Example 80] yields OX2R agonist activity (3 μM, %) of 99

Query C/C=C\C1CCC(OCC2C(NS(C)(=O)=O)CCc3ccc(C)c(=O)n32)CC1 (racemic) [Example 110] yields OX2R agonist activity (3 μM, %) of 91

---

# OX2R agonist activity (3 μM, %) per entry
Target: human orexin type 2 receptor (Homo sapiens)
Construct: expressed in transfected cells
Experiment: Measurement of orexin type 2 receptor agonist activity (calcium fluorescence, CHO cells forcibly expressing human OX2 receptor)
Format: cell-based
Conditions: compound at 3 μM, DMSO = 0%, orexin A (human) 10 nM = 100%
Report the figure in % without appending any unit label.

| compound | OX2R agonist activity (3 μM, %) |
| --- | --- |
| CCC1CCC(OCC2C(NS(=O)(=O)C3CC3)CCc3ccc(C)c(=O)n32)CC1 (racemic) | 97 |

Query COC(C)C1CCC(OCC2C(NS(C)(=O)=O)CCc3ccc(C)c(=O)n32)CC1 (racemic) yields OX2R agonist activity (3 μM, %) of 84

Query CC1CCC(OCC2C(NS(C)(=O)=O)CCc3ccc(C4CC4)c(=O)n32)CC1 (stereo not shown) yields OX2R agonist activity (3 μM, %) of 84

Query CCOCC1CCC(OCC2C(NS(C)(=O)=O)CCc3ccc(C)c(=O)n32)CC1 (racemic) yields OX2R agonist activity (3 μM, %) of 102

Query CCc1ccc2n(c1=O)C(COC1CCC(C)CC1)C(NS(=O)(=O)CC)CC2 (stereo not shown) yields OX2R agonist activity (3 μM, %) of 99

Query Cc1ccc2n(c1=O)C(COC1CCC(OC(C)C)CC1)C(NS(C)(=O)=O)CC2 (racemic) yields OX2R agonist activity (3 μM, %) of 103

Query Cc1ccc2n(c1=O)C(COC1CCC(C)CC1)C(NS(C)(=O)=O)CC2 (stereo not shown) [Example 5] yields OX2R agonist activity (3 μM, %) of 112
